target: T1, human CXCR4-enriched lipoparticles (LEV101, Integral Molecular) (human, UniProt P61073 1-352); test: biosensor kinetic titration, Fab over captured human CXCR4 lipoparticles
T1 construct: Bought reagent; CXCR4 held in lipoparticles captured by biotinylated WGA on an SA chip; also called Lipoparticles containing CXCR4 proteins
T1 sequence (P61073 whole entry): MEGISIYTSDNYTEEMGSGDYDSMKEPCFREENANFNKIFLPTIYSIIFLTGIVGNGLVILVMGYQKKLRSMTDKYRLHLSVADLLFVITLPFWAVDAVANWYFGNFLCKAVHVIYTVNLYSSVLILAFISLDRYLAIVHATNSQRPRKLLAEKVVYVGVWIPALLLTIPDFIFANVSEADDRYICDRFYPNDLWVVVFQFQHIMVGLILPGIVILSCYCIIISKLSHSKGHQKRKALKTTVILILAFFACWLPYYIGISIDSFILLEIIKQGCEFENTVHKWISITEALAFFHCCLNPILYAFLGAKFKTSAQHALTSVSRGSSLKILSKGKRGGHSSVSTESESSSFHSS
quantity_measured: kon

As a guide, the following entries are already answered.
binder	kon
h3G10.A57 VH / h3G10.A58A VL Fab (Fab, V domains shown, Tested as Fab) VH: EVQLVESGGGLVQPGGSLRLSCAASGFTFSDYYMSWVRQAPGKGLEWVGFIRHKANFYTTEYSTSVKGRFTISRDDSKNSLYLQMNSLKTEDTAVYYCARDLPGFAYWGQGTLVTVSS VL: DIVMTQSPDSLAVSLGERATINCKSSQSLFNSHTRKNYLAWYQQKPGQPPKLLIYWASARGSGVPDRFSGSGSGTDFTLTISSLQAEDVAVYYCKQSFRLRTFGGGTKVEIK	1.6e+06 M⁻¹ s⁻¹
h3G10.1.91 VH / h3G10.A58B VL Fab (Fab, V domains shown, Tested as Fab) VH: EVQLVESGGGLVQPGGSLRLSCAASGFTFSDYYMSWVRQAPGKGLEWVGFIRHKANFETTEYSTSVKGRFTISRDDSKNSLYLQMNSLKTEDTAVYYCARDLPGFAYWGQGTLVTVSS VL: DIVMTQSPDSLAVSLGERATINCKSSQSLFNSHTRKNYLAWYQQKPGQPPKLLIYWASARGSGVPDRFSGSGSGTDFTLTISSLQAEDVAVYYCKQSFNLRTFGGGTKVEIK	803000 M⁻¹ s⁻¹

Next, consider the following binder.
**Q:** Query (binder): h3G10.2.37 VH / h3G10.A58A VL Fab (Fab, V domains shown, Tested as Fab) VH: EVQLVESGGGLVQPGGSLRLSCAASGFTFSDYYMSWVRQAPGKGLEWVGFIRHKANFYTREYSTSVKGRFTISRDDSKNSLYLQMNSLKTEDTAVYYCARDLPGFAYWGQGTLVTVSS VL: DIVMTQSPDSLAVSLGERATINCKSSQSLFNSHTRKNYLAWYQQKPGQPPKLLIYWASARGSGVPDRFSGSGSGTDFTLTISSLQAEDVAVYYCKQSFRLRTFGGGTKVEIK ; field requested: kon
**A:** 1.29e+06 M⁻¹ s⁻¹
